Provide the reported Control/% of each item.
Test system: Nilaparvata lugens (Brown Plant Hopper)
Experiment: Nilaparvata lugens (Brown Plant Hopper) rice seedling spray test, mortality
Format: in vivo
Conditions: rate 25 ppm; N3 nymphs; mortality 6-12 days after treatment
Answers are plain numbers, in %.

Field: example entries. Status: answers known.
>>> observed_result("CCN1OCC(NC(=O)c2ccc(C3=NOC(c4cc(Cl)c(Cl)c(Cl)c4)(C(F)(F)F)C3)cc2C)C1=O (mixture of isomers) [Compound A6]")
100
>>> observed_result("CCN1OC[C@@H](NC(=O)c2ccc(C3=NO[C@@](c4cc(Cl)c(Cl)c(Cl)c4)(C(F)(F)F)C3)cc2Br)C1=O [Compound A33]")
98
>>> observed_result("Cc1cc(C2=NOC(c3cc(Cl)c(Cl)c(Cl)c3)(C(F)(F)F)C2)ccc1C(=O)NC1CON(CC(F)(F)F)C1=O (mixture of isomers) [Compound A23]")
98
>>> observed_result("Cc1cc(C2=NO[C@@](c3cc(Cl)c(F)c(Cl)c3)(C(F)(F)F)C2)ccc1C(=O)N[C@@H]1CON(CC(F)(F)F)C1=O [Compound A14]")
100
>>> observed_result("CCN1OC[C@@H](NC(=O)c2ccc(C3=NO[C@@](c4cc(Cl)cc(C(F)(F)F)c4)(C(F)(F)F)C3)c3ccccc23)C1=O [Compound A26]")
100
>>> observed_result("CCN1OC[C@@H](NC(=O)c2ccc(C3=NO[C@@](c4cc(Cl)cc(Cl)c4)(C(F)(F)F)C3)cc2Br)C1=O [Compound A34]")
100

Hey, quick one: what's Control/% for each of these?
1. Cc1cc(C2=NO[C@@](c3cc(Cl)cc(Cl)c3)(C(F)(F)F)C2)ccc1C(=O)N[C@@H]1CON(CC(F)(F)F)C1=O [Compound A9]
2. CCN1OCC(NC(=O)c2ccc(C3=NCC(c4cc(Cl)cc(Cl)c4)(C(F)(F)F)C3)cc2C)C1=O (stereo not shown) [Compound B2]
3. Cc1cc(C2=NOC(c3cc(Cl)cc(Cl)c3)(C(F)(F)F)C2)ccc1C(=O)NC1CON(CC(F)(F)F)C1=O (mixture of isomers) [Compound A2]
4. CCN1OCC(NC(=O)c2ccc(C3=NCC(c4cc(Cl)cc(Cl)c4)(C(F)(F)F)C3)cc2C)C1=O (mixture of isomers) [Compound B1]
5. CCN1OC[C@@H](NC(=O)c2ccc(C3=NO[C@@](c4cc(Cl)cc(C(F)(F)F)c4)(C(F)(F)F)C3)cc2C)C1=O [Compound A15]

stdout:
1. 100
2. 70
3. 98
4. 78
5. 99

Look up Control/% for the entries below, preserving their order.
1. CCN1OC[C@@H](NC(=O)c2ccc(C3=NO[C@@](c4cc(Cl)cc(Cl)c4)(C(F)(F)F)C3)cc2C)C1=O [Compound A3]
2. CCN1OCC(NC(=O)c2ccc(C3=NOC(c4cc(Cl)c(F)c(Cl)c4)(C(F)(F)F)C3)cc2C)C1=O (mixture of isomers) [Compound A8]

stdout:
1. 100
2. 100
